Target: human recombinant HDAC6 (Homo sapiens)
Construct: purchased Calbiochem Inc. 382180
Sequence (Q9UBN7 1-1215): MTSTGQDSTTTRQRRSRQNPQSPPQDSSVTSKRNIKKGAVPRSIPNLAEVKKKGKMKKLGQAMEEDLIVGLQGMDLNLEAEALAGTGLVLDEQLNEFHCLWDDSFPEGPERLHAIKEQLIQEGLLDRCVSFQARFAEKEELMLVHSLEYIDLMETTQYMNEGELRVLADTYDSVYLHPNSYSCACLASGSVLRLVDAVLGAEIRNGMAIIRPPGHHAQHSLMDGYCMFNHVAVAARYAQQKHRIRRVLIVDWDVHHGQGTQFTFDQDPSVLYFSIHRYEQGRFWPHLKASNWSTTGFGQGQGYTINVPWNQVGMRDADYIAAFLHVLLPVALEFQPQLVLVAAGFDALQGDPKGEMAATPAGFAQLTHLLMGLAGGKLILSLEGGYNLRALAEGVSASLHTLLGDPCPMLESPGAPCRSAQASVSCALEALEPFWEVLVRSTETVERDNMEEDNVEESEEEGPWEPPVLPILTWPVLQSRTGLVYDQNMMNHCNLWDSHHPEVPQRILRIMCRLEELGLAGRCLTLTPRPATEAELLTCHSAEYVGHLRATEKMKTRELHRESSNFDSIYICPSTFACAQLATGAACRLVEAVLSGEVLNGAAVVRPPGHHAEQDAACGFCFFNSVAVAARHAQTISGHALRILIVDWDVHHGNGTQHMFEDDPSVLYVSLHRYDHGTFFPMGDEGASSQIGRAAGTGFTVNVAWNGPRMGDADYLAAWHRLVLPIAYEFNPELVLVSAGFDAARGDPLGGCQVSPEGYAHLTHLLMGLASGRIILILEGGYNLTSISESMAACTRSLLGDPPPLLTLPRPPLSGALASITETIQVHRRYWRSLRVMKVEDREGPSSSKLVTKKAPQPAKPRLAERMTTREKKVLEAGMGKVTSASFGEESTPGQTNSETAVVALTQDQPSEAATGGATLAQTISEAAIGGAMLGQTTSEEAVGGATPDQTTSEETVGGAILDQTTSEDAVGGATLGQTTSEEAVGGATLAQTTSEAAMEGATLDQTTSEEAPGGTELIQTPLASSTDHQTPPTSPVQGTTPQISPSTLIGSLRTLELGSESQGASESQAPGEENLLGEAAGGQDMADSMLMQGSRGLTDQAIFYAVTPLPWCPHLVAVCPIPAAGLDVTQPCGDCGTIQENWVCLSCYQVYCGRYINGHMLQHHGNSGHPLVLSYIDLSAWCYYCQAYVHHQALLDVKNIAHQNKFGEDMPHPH
Test: HDAC6 enzyme activity inhibition (HDAC Fluorimetric Drug Discovery Kit)
Format: biochemical
Details: human recombinant HDAC6; IC50 calculated with GraphPad Prism
Please note: IC50 exactly at 50 nM is 0. Only values below 50 nM get 1.

Fc1cc(-c2nnc(C(F)F)o2)ccc1Cn1cc(-c2ccc3cc[nH]c3c2)nn1 | 0
O=C(c1cccc(-c2cn(Cc3ccc(-c4nnc(C(F)F)o4)cn3)nn2)c1)N1CCC1 | 1
FC(F)c1nnc(-c2ccc(Cn3cc(-c4ccccc4N4CCOCC4)nn3)nc2)o1 | 0
OCc1c(-c2ccccc2)nnn1Cc1ccc(-c2nnc(C(F)F)o2)cc1F | 0
CC(C)(C)OC(=O)N1CC(c2cn(Cc3ccc(-c4nnc(C(F)F)o4)cn3)nn2)C1 | 0

Find out if reported IC50 for `FC(F)c1nnc(-c2ccc(Cn3cc(-c4ccc5[nH]cc(CN6CCOCC6)c5c4)nn3)nc2)o1` is less than 50 nM
1

Find out if reported IC50 for `FC(F)c1nnc(-c2ccc(Cn3cc(-c4ccc5cc[nH]c5c4)nn3)cc2)o1` is less than 50 nM
0

Find out if reported IC50 for `CC(C)(C)C(=O)Nc1cccc(-c2cn(Cc3ccc(-c4nnc(C(F)F)o4)cc3)nn2)c1` is less than 50 nM
1

Find out if reported IC50 for `Fc1cc(-c2nnc(C(F)F)o2)ccc1Cn1cc(C2(F)COC2)nn1` is less than 50 nM
0
